# Tested Target: Gal4 DNA binding domain fused to the LBD of LXRα in HEK293 cells (Homo sapiens (Human), UniProt Q13133)
# Sequence (Q13133 209-447): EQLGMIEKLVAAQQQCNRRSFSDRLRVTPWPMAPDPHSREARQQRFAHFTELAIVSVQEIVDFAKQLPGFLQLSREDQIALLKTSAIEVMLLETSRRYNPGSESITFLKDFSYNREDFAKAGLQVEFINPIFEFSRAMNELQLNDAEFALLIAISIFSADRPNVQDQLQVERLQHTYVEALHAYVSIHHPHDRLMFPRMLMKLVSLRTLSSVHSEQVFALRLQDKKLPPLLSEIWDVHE
# Run Description: LXR luciferase transcriptional reporter gene assay, agonist mode, LXRα
# Assay type: cell-based
# Test Conditions: agonist mode; read-out: Cell LXRα EC50
The following compounds are listed with their measured pEC50 values.
API: returns pEC50 as number; meaning -log10 of concentration in mol/L.

Would you please look over these solved cases?
INSERT INTO assay_data (compound, reported_property, measured_result) VALUES
  ('CC(C)[C@@H]1CN(c2ccc(CN)c(S(C)(=O)=O)c2)CCN1c1nccc(C(F)(F)F)n1', 'pEC50', 5.37),
  ('CC(C)[C@@H]1CN(c2ccc(C(F)(F)F)c(S(C)(=O)=O)c2)CCN1C(=O)OC(C)(C)C', 'pEC50', 4.84),
  ('CC(C)[C@@H]1CN(c2cccc(S(C)(=O)=O)c2)CCN1C(=O)OCC(C)(C)C', 'pEC50', 5.85),
  ('CO[C@H](C)[C@@H]1CN(c2ccc(CO)c(S(C)(=O)=O)c2)CCN1c1ncc(CO)c(C(F)(F)F)n1 (single isomer, unassigned)', 'pEC50', 5.33),
  ('Cc1cc(C#N)nc(N2CCN(c3ccc(F)c(S(C)(=O)=O)c3)C[C@H]2C(C)C)n1', 'pEC50', 4.76),
  ('Cc1coc(-c2ccc(N3CCN(c4ncc(CO)c(C(F)(F)F)n4)[C@H](C(C)C)C3)cc2S(C)(=O)=O)n1', 'pEC50', 5.53),
  ('Cc1csc(-c2ccc(N3CCN(c4ncc(CO)c(C(F)(F)F)n4)[C@H](C(C)C)C3)cc2S(C)(=O)=O)n1', 'pEC50', 7.18),
  ('CS(=O)(=O)c1cc(N2CCN(c3ncc(CO)c(C(F)(F)F)n3)[C@H](c3ccc(F)cc3)C2)ccc1F', 'pEC50', 5.65),
  ('Cc1nc(N2CCN(c3ccc(F)c(S(C)(=O)=O)c3)C[C@H]2C(C)C)ncc1S(C)(=O)=O', 'pEC50', 5.02),
  ('CCOC(=O)c1cnc(N2CCN(c3ccc(F)c(S(C)(=O)=O)c3)C[C@H]2C(C)C)nc1C', 'pEC50', 6.04);

Task: Returns the measured pEC50 for the input compound. Input: "CC(C)[C@@H]1CN(c2ccc(C#N)c(S(C)(=O)=O)c2)CCN1c1ccc(C(F)(F)F)cn1"
Result: 5.77

Task: Returns the measured pEC50 for the input compound. Input: "CC(C)[C@@H]1CN(c2cccc(S(C)(=O)=O)c2)CCN1c1ccc(C(F)(F)F)cn1"
Result: 6.86

----------
# Tested Target: Gal4 DNA binding domain fused to the LBD of LXRα in HEK293 cells (Homo sapiens (Human))
# Run Description: LXR luciferase transcriptional reporter gene assay, agonist mode, LXRα
# Type: cell-based
Reported Property: Cell LXRα efficacy

INSERT INTO measurements (compound, measured_result) VALUES
  ('CC(C)[C@@H]1CN(c2ccc(F)c(S(C)(=O)=O)c2)CCN1c1ncc(CNS(C)(=O)=O)c(C(F)(F)F)n1', '2315 (23) %'),
  ('CC(C)[C@H]1CN(c2ccc(CO)c(S(C)(=O)=O)c2)CCN1C[C@@H]1CCN(CC(F)(F)F)C1 (single isomer, unassigned)', '1189 (54) %'),
  ('CC(C)[C@@H]1CN(c2ccc(C#N)c(S(C)(=O)=O)c2)CCN1c1ncc([C@@H](C)O)c(C(F)(F)F)n1 (single isomer, unassigned)', '4457 (58) %');

Task: Returns the measured Cell LXRα efficacy for the input compound. Input: "Cc1nc(N2CCN(c3ccc(F)c(S(C)(=O)=O)c3)C[C@H]2C(C)C)ncc1Cl"
Result: 997 (83) %

All figures here come from patent US10144715B2.
